# System: T-47D breast
# experimentNotes: NCI tumour cell line growth inhibition, 48 h
experimentalReadout: TGI

Problem: # TGI lookup, item `CCOC(=O)c1ccc(Nc2nc3cc(C(F)(F)F)ccc3nc2C(=O)OCC)cc1`
Solution: > 100 µM

Problem: Look up TGI for this molecule: `O=C(COc1ccc(Cl)cc1Cl)N/N=C/C=C/c1ccc([N+](=O)[O-])o1`
Solution: > 100 µM

Problem: GET /values?readout=TGI&item= `O=C(/C=C/c1ccc2c(c1)OCO2)CC(=O)/C=C/c1ccc2c(c1)OCO2`
Solution: > 100 µM

Problem: Look up TGI: `C=C(C)[C@@H]1CC[C@]2(C(N)=O)CC[C@]3(C)[C@H](CC[C@@H]4[C@@]5(C)C/C(=C/c6cccnc6)[C@H](O)C(C)(C)[C@@H]5CC[C@]43C)[C@@H]12`
Solution: > 100 µM

Problem: Requested field: TGI. Item: N#CC1(C#N)C(c2ccccc2)C=CC(c2ccc([N+](=O)[O-])cc2)C1(C#N)C#N (centres undefined)
Solution: 7.27 µM

Problem: Please look up its TGI: `Clc1ccc2c(NCCNc3nc(N4CCCC4)nc4ccccc34)ccnc2c1`
Solution: 3.99 µM

Problem: Request the reported TGI associated with COc1ccc(C(SCC(N)C(=O)O)(c2ccc(OC)cc2)c2ccc(OC)cc2)cc1 (centres undefined)
Solution: 21.4 µM

Problem: Which TGI is listed for `COc1cc2c(cc1OC)C(=O)/C(=C/c1ccc([N+](=O)[O-])cc1)CC2` ?
Solution: > 10 µM

Problem: TGI lookup needed for `N#CSc1ccc(S(N)(=O)=O)cc1` , thanks.
Solution: > 100 µM

Problem: # TGI lookup, item `COC1=C(OC)[C@]2(OC)c3c(O)c(OC)c4c(c3O[C@@]23O[C@@H](c2ccccc2)CC=C3C1=O)[C@@H](O)C[C@H](c1ccccc1)O4`
Solution: 0.621 µM

Problem: Tell me the measured TGI of `CCOP(=O)(OCC)C(F)(F)Cc1cnc(C)c2c1COC(C)(C)O2` , please.
Solution: > 10 µM

Problem: # lookup: TGI of COc1ccc(C(c2cc3c(cc2O)OCO3)N2CCOCC2)cc1OC (centres undefined)
Solution: 45.8 µM

Problem: Request the reported TGI associated with COc1cc2c3c(n(CCCN4CCCC(O)C4)c(=O)c2cc1OC)-c1cc2c(cc1C3=O)OCO2 (centres undefined)
Solution: 3.2 µM

Problem: Would you mind telling me what TGI value was observed for Nc1c2ccccc2nc2ccccc12 (tested in a mixture with another compound) ?
Solution: 5.98 µM

Problem: I have this molecule here, `Cc1nn(C)c2cc(N(C)c3ccnc(Nc4cccc(S(N)(=O)=O)c4)n3)ccc12` , and I need its recorded TGI.
Solution: > 21.1 µM

Problem: Requested read-out: TGI. Entry: `Nc1ccc(-c2ccc(-c3nc4cc(Cl)c(Cl)cc4[nH]3)cc2)cc1`
Solution: > 100 µM

Problem: Which TGI value is on record for `CC(C)(C)c1cc(-c2nc3c(F)c(F)c(F)c(F)c3[nH]2)cc(C(C)(C)C)c1O` ?
Solution: > 100 µM

Problem: Quick one: TGI for `NC(=O)OCc1c(-c2ccccc2)nn(-c2ccccc2)c1COC(N)=O` ?
Solution: > 100 µM

Problem: Which TGI is listed for `CC(C)NC(=O)OCc1c(COC(=O)NC(C)C)c(-c2ccc[n+](COC(=O)C(C)(C)C)c2)n2c1CCC2` ?
Solution: > 100 µM

Problem: Value lookup for TGI; key = CC1C(O)Oc2cc3c(cc2C1c1ccccc1O)OCO3 (centres undefined)
Solution: > 100 µM

Problem: I'd like to know its TGI. The molecule in question is `COc1cc(C)c(NC(=O)CN(C)C)cc1Nc1nc(Nc2cccc(F)c2C(N)=O)c2cc[nH]c2n1`
Solution: 8.38 µM

Problem: Item under review: `Fc1cccc(-c2[nH]nc3nc(Nc4cccnc4)sc23)c1` . Reported TGI?
Solution: > 100 µM

Problem: I am curious: what TGI value has been reported for `CCN(CC)C(=S)SS(=O)(=O)c1ccc(NC(C)=O)cc1` ?
Solution: > 100 µM

Problem: GET /values?readout=TGI&item= `O=C1COCCN1C(=O)c1ccccc1Cl`
Solution: > 100 µM

Problem: # lookup: TGI of O=S(=O)(O)C(Cc1nc2ccccc2[nH]1)S(=O)(=O)OCCC1S(=O)(=O)OCCOS1(=O)=O (centres undefined)
Solution: > 100 µM

Problem: Bench note: what TGI did Cc1ccc(C2SCC(=O)N2NC(=O)c2ccncc2)s1 (centres undefined) show?
Solution: > 100 µM

Problem: Fill blank: measured TGI of the molecule `COc1ccc2nc(-c3cc4c([nH]c5ccccc54)c(-c4ccc(F)c(F)c4)n3)[nH]c2c1` is ____.
Solution: 20 µM

Problem: I would be grateful if you could share the reported TGI for `O=[N+]([O-])c1cc2c(c([N+](=O)[O-])c1)Nc1ccccc1O2` .
Solution: 10.2 µM

Problem: Given the entry `C[C@]12CCC(=O)C=C1CC[C@@H]1[C@@H]2[C@@H](O)C[C@@]2(C)[C@H]1CC[C@]2(O)C(=O)COC(=O)C1CCCC1` , report its measured TGI.
Solution: > 100 µM

Problem: So what's the measured TGI for this one? `Cc1ccc(/C=N/NS(=O)(=O)c2ccc(/C=C3\NC(=O)NC3=O)cc2)cc1`
Solution: > 100 µM

Problem: What measured TGI goes with `Cc1nnc2n1N=C(c1cc(F)c(Cl)cc1Cl)/C(=C/c1ccc3c(c1)OCO3)S2` ?
Solution: > 100 µM

Problem: Entry `CCOC(=O)c1cc(Br)c(-c2onc(C)c2Br)n1C` : reported TGI = ?
Solution: 57.7 µM

Problem: So what's the measured TGI for this one? `O=c1/c(=C/c2ccc([N+](=O)[O-])o2)sc2n1[C@@H](c1ccc3c(c1)OCO3)C=C(c1cc(F)c(Cl)cc1Cl)N=2`
Solution: 59.3 µM

Problem: What value of TGI has been reported for the following molecule? `COC(=O)C1(C(=O)OC)CC2=C(S(=O)(=O)c3ccccc3)C[C@H](C#N)[C@H]2C1`
Solution: > 100 µM

Problem: Tell me the measured TGI of `CN(C)c1nc(=NCc2cccnc2)ss1` , please.
Solution: > 10 µM

Problem: Which measured TGI value corresponds to Cc1ccc2c(c1)C=CC(C#N)N2C(=O)Oc1ccccc1 (centres undefined) ?
Solution: 73.8 µM

Problem: What measured TGI goes with `O=c1cc(-c2cccc(OCc3ccccc3)c2)[nH]c2cc3c(cc12)OCO3` ?
Solution: > 100 µM

Problem: Recorded TGI of O=C(c1ccccc1)C1C[C@H]2CO[C@H](c3ccccc3)N2C1=O (some centres undefined) , please.
Solution: > 100 µM

Problem: Given `CNC(=O)Nc1ccccc1` , state its recorded TGI.
Solution: > 100 µM
